tested on: Homo sapiens; test: Toxicity in chronic hepatitis B virus infected patient assessed as serum ALT level at 120 mg, po qd for 4 weeks by LC-MS analysis; assay type: organism-based; details: in vivo, 672 h
quantity measured: Activity (U/L)
Response body: numeric value in U/L, unit text excluded.

q: Name the reported Activity value associated with the molecule CC(C)(C)C(=O)OCOP(=O)(COC1(Cn2cnc3cnc(N)nc32)CC1)OCOC(=O)C(C)(C)C [LB80380]
a: 34.5

====

tested on: Plasma; experiment: Cmax in CD-1 mouse plasma assessed as (1-((2-amino-9H-purin-9-yl)methyl)cyclopropoxy)me at 30 mg/kg, po administered as single dose by LC-MS analysis; format: ADME, organism-based; design: dose 30 mg/kg, route oral; details: in vivo
quantity measured: Cmax (µM)
The reply should contain only the number, in µM.

q: Report Cmax for Nc1ncc2ncn(CC3(OCP(=O)(O)O)CC3)c2n1 tested on Plasma.
a: 6

====

system: Liver; assay: Cmax in CD-1 mouse liver assessed as di- and triphosphates of (1-((2-amino-6-hydroxy-9H-purin-9-yl)methyl)cyclopropoxy)me at 30 mg/kg, po administered as single dose by LC-MS analysis; type: ADME, organism-based; design: dose 30 mg/kg, route oral; settings: in vivo
quantity measured: Cmax

q: Any idea what Cmax was measured for Nc1nc(O)c2ncn(CC3(OCP(=O)(O)O)CC3)c2n1 ?
a: 107 µM

====

tested on: Homo sapiens; assay: Toxicity in chronic hepatitis B virus infected patient assessed as serum ALT level at 30 mg, po qd for 4 weeks by LC-MS analysis; type: organism-based; details: in vivo, 672 h
quantity measured: Activity (U/L)
// note: answer is a bare numeric in U/L

q: Fill in: Activity of CC(C)(C)C(=O)OCOP(=O)(COC1(Cn2cnc3cnc(N)nc32)CC1)OCOC(=O)C(C)(C)C [LB80380] is ___
a: 79.5

====

tested on: Homo sapiens; experiment: Tmax in high fat diet fed healthy human assessed as (1-((2-amino-9H-purin-9-yl)methyl)cyclopropoxy)me assessed as (1-((2-amino-9H-purin-9-yl)methyl)cyclopropoxy)me at 60 mg, po administered as single dose by LC-MS analysis; assay type: ADME, organism-based; details: in vivo
quantity measured: Tmax (h)
Numbers only; they are read as h.

q: Please report the recorded Tmax for Nc1ncc2ncn(CC3(OCP(=O)(O)O)CC3)c2n1 .
a: 4

====

tested on: Liver; assay: Cmax in CD-1 mouse liver assessed as (1-((2-amino-6-hydroxy-9H-purin-9-yl)methyl)cyclopropoxy)me at 30 mg/kg, po administered as single dose by LC-MS analysis; type: ADME, organism-based; design: dose 30 mg/kg, route oral; settings: in vivo
quantity measured: Cmax (µM)
Value expressed in µM; do not type the unit.

q: Entry under review: Nc1nc(O)c2ncn(CC3(OCP(=O)(O)O)CC3)c2n1 [LB80317] . Reported Cmax?
a: 243

====

test system: Homo sapiens; assay: Toxicity in chronic hepatitis B virus infected patient assessed as serum ALT level at 240 mg, po qd for 4 weeks by LC-MS analysis; type: organism-based; settings: in vivo, 672 h
quantity measured: Activity (U/L)
Number in U/L, nothing else.

q: Would you mind telling me what Activity value was observed for CC(C)(C)C(=O)OCOP(=O)(COC1(Cn2cnc3cnc(N)nc32)CC1)OCOC(=O)C(C)(C)C [LB80380] ?
a: 27
